Hello, the source for this data is PubChem BioAssay (NCI), in case you need it.

Record form. Attribute: TGI. Fill in for each entry.
system: HCC-2998 colon; experiment: NCI tumour cell line growth inhibition, 48 h

Fill in TGI for each of the 4 compounds listed.
1. CCOC(=O)CN1CCNCCN(CC(=O)OCC)CCNCC1
2. Brc1cccc(/C=C/CN2CCN(CCOC(c3ccccc3)c3ccccc3)CC2)c1
3. O=C1OC(c2ccco2)=N/C1=C\c1ccc(Cl)c(Cl)c1
4. CCC1=C(C)/C(=C/c2[nH]c(C)c(C(=O)CCCCC(=O)OC)c2C)N=C1c1ccc[nH]1

output:
> 100 µM
21.3 µM
> 100 µM
54.1 µM

Fill in TGI for each of the 7 compounds listed.
1. Oc1c(CN2CCC(N3CCOCC3)CC2)cc(Cc2cc(CN3CCC(N4CCOCC4)CC3)c(O)c3ncccc23)c2cccnc12
2. Clc1ccc(N=C/C=C/Nc2ccc(Cl)cn2)nc1
3. CN(C1=NCCO1)c1cccc2ccccc12
4. O=C(/C=C/c1ccco1)c1ccc(Nc2nc(Nc3ccc(F)cc3)nc(Nc3ccc(Cl)cc3)n2)cc1
5. CC(=O)N(C)OC(=O)CC(=O)c1ccccc1
6. CN/N=C(/Cc1occc(=O)c1O)C(=O)Nc1ccc(C)c(C)c1
7. C=C1C(=O)O[C@@H]2[C@H]3O[C@]3(C)CCC=C(C)CC[C@@H]12

output:
1: 13.5 µM; 2: 0.922 µM; 3: > 10 µM; 4: > 100 µM; 5: > 100 µM; 6: > 100 µM; 7: 56.1 µM

Fill in TGI for each of the 6 compounds listed.
1. O=S(=O)([O-])[O-].[OH3+].[OH3+].[OH3+].[Ru+2].c1ccccc1
2. CN(C)c1ccc(-c2cc(=O)c3ccccc3[nH]2)cc1
3. COc1ccc(C(=O)Cn2c(C(=O)c3ccc(OC)cc3)nc3ccccc32)cc1
4. CCN(CC)CCn1c(C(C)(C)C)nc2ccccc21
5. Cc1ccc(/C=C2\CN(C)CC3=C2OC(N)=C(C#N)C3c2ccc(C)cc2)cc1 (configuration not stated)
6. Cn1c(=O)oc2cc(C(=O)CSC(=S)N3CCCCCC3)ccc21

output:
> 100 µM
> 100 µM
> 100 µM
> 100 µM
37.2 µM
> 100 µM

###

tested on: MALME-3M melanoma; test: NCI tumour cell line growth inhibition, 48 h
Measurement Label: TGI

• c1ccc(COc2ccc(CC3SCCCS3)cc2)cc1 = > 100 µM
• O=C(Cn1c(=O)ccn(C2OC(CO)C(O)C2F)c1=O)c1ccc(F)cc1 (stereo not given) = > 100 µM
• CNC(=S)/C(=N\Nc1nc[nH]c1C(N)=O)C(N)=S = > 54.8 µM
• COc1cc(NS(C)(=O)=O)ccc1NCc1cnc2ccc3[nH]c(C)ccc3c12 = > 100 µM

// next item, TGI requested
input: Name the recorded TGI of the item CC(=O)Nc1ccc(/C=C(\NC(=O)c2ccccc2)c2nc3ccc4c(c3[nH]2)C(=O)c2ccccc2C4=O)cc1 in your answer.
output: > 100 µM

###

Record form. Attribute: GI50. Fill in for each entry.
tested on: 786-0 renal; test: NCI tumour cell line growth inhibition, 48 h

Below: 5 compounds and their reported GI50.
• CN(C)/[N+]([O-])=N/Oc1cc(Nc2cccc(C(=O)O)c2)c([N+](=O)[O-])cc1[N+](=O)[O-] = > 100 µM
• CN1CCN(Cc2ccc(-c3cc4ncnc(Nc5ccc(OCc6cccc(F)c6)c(Cl)c5)c4s3)o2)CC1 = 4.47 µM
• C=C1C(=O)O[C@H]2[C@H]1CC/C(COC(=O)C(=O)c1c[nH]c3ccccc13)=C\CC[C@@]1(C)O[C@@H]21 = 1.84 µM
• CCn1c(=O)c(-c2ccn[nH]2)cc2c(C)nc(N)nc21 = 0.511 µM
• Cc1ccc(Nc2nc(NCCO)c3ccccc3n2)cc1C = 6.94 µM

Fill in GI50 for each of the 3 compounds listed.
1. Nc1c(C(=O)Nc2ccccc2)sc2nc3c(cc12)CCCCCC3
2. CCCCCCCCCCCCN1C(C)=CS/C1=C\C=C\c1scc(C)[n+]1CCCCCCCCCCCC
3. CCC1=C(C)/C(=C/c2[nH]c(C)c(C(=O)CCCCC(=O)OC)c2C)N=C1c1ccc[nH]1

output:
1. 0.551 µM
2. 2.17 µM
3. 15.1 µM

Fill in GI50 for each of the 2 compounds listed.
1. OCCN(CCO)N=Nc1ccc(-c2nc3ccccc3[nH]2)cc1
2. COc1cccc(-c2nn(-c3ccccc3)cc2-c2ccnc(NCCNS(=O)(=O)c3ccc(Cl)cc3)c2)c1

output:
1: 25.2 µM; 2: 6.61 µM

###

system: HL-60(TB) leukemia; assay: NCI tumour cell line growth inhibition, 48 h
Measurement Label: TGI

Below: 2 compounds and their reported TGI.
- C=C(O)c1ccccc1C#Cc1ccccc1C(=O)OC: > 10 µM
- CC1=CC=NN2C(=O)[C@H](C)C2C1 (stereo partly drawn): > 100 µM

// next item, TGI requested
input: Name the recorded TGI of the item c1ccc(N=C2c3ccccc3CN2c2ccccc2)cc1 in your answer.
output: > 100 µM

###

system: MALME-3M melanoma; assay: NCI tumour cell line growth inhibition, 48 h
Measurement Label: TGI

• O=C(Cc1nc2ccccc2s1)C(=O)Nc1ccc(Cl)cc1 = > 100 µM
• Cc1cc2c(c3c1c1ccccc1n3C)C(=O)C=CC2=O = > 82.6 µM
• O=S(=O)([O-])[O-].[OH3+].[OH3+].[OH3+].[Ru+2].c1ccccc1 = > 100 µM
• CCOC(=O)C1C(=O)CC(O)(OCC)C(C(=O)OCC)C1c1ccc(OC)cc1 (stereo not given) = > 100 µM

// next item, TGI requested
input: Name the recorded TGI of the item O=C(NN=C1CCN(Cc2ccccc2)CC1)C(O)(c1ccccc1)c1ccccc1 in your answer.
output: > 100 µM

###

Record form. Attribute: TGI. Fill in for each entry.
test system: UACC-257 melanoma; assay: NCI tumour cell line growth inhibition, 48 h

Below: 3 compounds and their reported TGI.
- CCC1=C(C)/C(=C/c2[nH]c(C)c(C(=O)CCCCC(=O)OC)c2C)N=C1c1ccc[nH]1: 44.2 µM
- C[C@]12CC[C@@H]3c4ccc(O)cc4CC[C@H]3[C@@H]1C/C(=C\c1ccc([N+](=O)[O-])cc1)C2=O: > 100 µM
- Cc1ccc(-c2c(C#N)c(-c3ccc(Cl)cc3)c(C#N)c(=O)n2NS(=O)(=O)c2ccccc2)cc1: > 100 µM

Fill in TGI for each of the 5 compounds listed.
1. CCN(CC)CCn1c(C(C)(C)C)nc2ccccc21
2. CCCCCCCCCCCCCS(=O)(=O)O
3. CCOC(=O)CN1CCNCCN(CC(=O)OCC)CCNCC1
4. CCC1(C)C=Cc2c(cc(OC)c3c(=O)c4ccccc4n(C)c23)O1 (stereo not drawn)
5. CCCC1NC(=O)C(CC(C)C)NC(=O)c2cccc(n2)C(=O)NC(CC(C)C)C(=O)NC(CCC)C(=O)NC(C(=O)OC)CCCCNC1=O (stereo not drawn)

output:
1: > 100 µM; 2: > 100 µM; 3: > 100 µM; 4: > 10 µM; 5: > 100 µM

###

system: ACHN renal; experiment: NCI tumour cell line growth inhibition, 48 h
Measurement Label: TGI

Below: 3 compounds and their reported TGI.
• S=c1[nH]nc(COc2ccc3c(c2)CCCC3)n1/N=C/c1ccc(Cl)cc1 = 36 µM
• O=C(/C=C/c1ccco1)c1ccc(Nc2nc(Nc3ccc(F)cc3)nc(Nc3ccc(Cl)cc3)n2)cc1 = > 78.9 µM
• CCCc1c2c([nH]c(=O)c1C)C(=O)c1[nH]c(=O)c(C)c(CCC)c1C2=O = 47.6 µM

Fill in TGI for each of the 5 compounds listed.
1. CSC(SC)=C1CC(=O)Nc2ccccc2C1=O
2. O=C(Nc1ccc(S(=O)(=O)Nc2nccs2)cc1)c1cccnc1Nc1cccc(Cl)c1
3. CCCCCCCCCCCCN1C(C)=CS/C1=C\C=C\c1scc(C)[n+]1CCCCCCCCCCCC
4. O=[N+]([O-])c1cnc(Sc2ccncn2)c([N+](=O)[O-])c1
5. NC(=O)NC(=O)c1cnccn1

output:
1: > 100 µM; 2: 96.6 µM; 3: 10.4 µM; 4: 3.27 µM; 5: > 100 µM

Fill in TGI for each of the 2 compounds listed.
1. COc1ccc(/C=C2\C=Cc3ccccc32)cc1OC
2. CCNC(=O)C[C@@H]1N=C(c2ccc(Cl)cc2)c2cc(OC)ccc2-n2c(C)nnc21

output:
["> 100 µM", "> 100 µM"]

###

system: HT29 colon; assay: NCI tumour cell line growth inhibition, 48 h
Measurement Label: TGI

Below: 2 compounds and their reported TGI.
• COc1cccc(-c2nn(-c3ccccc3)cc2-c2ccnc(NCCNS(=O)(=O)c3ccc(Cl)cc3)c2)c1 = 11.3 µM
• Oc1c(CN2CCC(N3CCOCC3)CC2)cc(Cc2cc(CN3CCC(N4CCOCC4)CC3)c(O)c3ncccc23)c2cccnc12 = 22.3 µM

Fill in TGI for each of the 5 compounds listed.
1. CN(C)/[N+]([O-])=N/Oc1cc(Nc2cccc(C(=O)O)c2)c([N+](=O)[O-])cc1[N+](=O)[O-]
2. Cn1ccnc1C(=O)/C=C/c1ccc(CC(=O)Nc2ccc(Cl)cc2)cc1
3. CCN(CC)CCn1c(C(C)(C)C)nc2ccccc21
4. NC(=S)/N=C/c1c(O)c2ccccc2oc1=O
5. O=[N+]([O-])c1cnc(Sc2ccncn2)c([N+](=O)[O-])c1

output:
["> 100 µM", "> 25 µM", "> 100 µM", "> 100 µM", "31.8 µM"]
